The reported measurements were obtained from ChEMBL document CHEMBL3085685.

runDescription: Cytotoxicity against mouse J774 cells assessed as reduction of cell viability after 24 hrs by resazurin dye-based fluorometric analysis
readoutType: CC50 at 24 h

{"molecule": "Cc1cc2cc(NS(=O)(=O)c3ccc([N+](=O)[O-])cc3)ccc2[nH]1", "CC50 at 24 h": "132 µM"}

Incoming: Give the value of CC50 at 24 h reported for the following: CC1CCCN(S(=O)(=O)c2cccc3ccccc23)C1 (centres undefined)
Outgoing: ≥ 300 µM

Incoming: Check the records and state CC50 at 24 h for CCCCCCCCCCCCCCCCOP(=O)([O-])OCC[N+](C)(C)C
Outgoing: 136 µM

Incoming: Give the value of CC50 at 24 h reported for the following: O=S(=O)(Nc1ccc2[nH]ncc2c1)c1ccc(F)cc1
Outgoing: ≥ 300 µM

Incoming: Give reported CC50 at 24 h value for O=[N+]([O-])c1ccc(S(=O)(=O)Nc2nccc3ccccc23)cc1
Outgoing: 41.3 µM

Incoming: Identify measured CC50 at 24 h associated with O=S(=O)(c1cccc2ccccc12)N1CCc2ccccc2C1
Outgoing: ≥ 300 µM

Incoming: Answer with the recorded CC50 at 24 h of O=[N+]([O-])c1ccc(S(=O)(=O)Nc2ccc3[nH]ncc3c2)cc1 only.
Outgoing: 133 µM

Incoming: For the molecule O=C(Cn1ccnc1[N+](=O)[O-])NCc1ccccc1 , report CC50 at 24 h.
Outgoing: ≥ 300 µM

Incoming: Return value of CC50 at 24 h for input CC1CCCN(S(=O)(=O)c2ccccc2)C1 (centres undefined) , no commentary.
Outgoing: ≥ 300 µM

Incoming: Report CC50 at 24 h, nothing else, for this molecule: O=S(=O)(Nc1ccc2ncsc2c1)c1ccccc1
Outgoing: ≥ 300 µM

---

runDescription: Cytotoxicity against mouse NCTC-929 cells assessed as reduction of cell viability after 24 hrs by resazurin dye-based […]
Listed compounds paired with reported CC50 at 24 h
Give a bare numeral; the unit µM is implied.

Consider the worked cases shown below.
{"sampleSmiles": "O=S(=O)(Nc1cccc2cnccc12)c1cccc2ccccc12", "readoutUnit": "µM", "CC50 at 24 h": 187}
{"sampleSmiles": "O=S(=O)(Nc1ccc2c[nH]nc2c1)c1ccc(Cl)cc1", "readoutUnit": "µM", "CC50 at 24 h": 211}
{"sampleSmiles": "O=[N+]([O-])c1ccc(S(=O)(=O)Nc2cnccn2)cc1", "readoutUnit": "µM", "CC50 at 24 h": 317}

Next, consider the following compound.
Incoming: Report measured CC50 at 24 h; entry is O=S(=O)(Nc1ccc2cn[nH]c2c1)c1ccc(F)cc1
Outgoing: 223

---

Items are presented alongside their recorded CC50 at 24 h.
runDescription: Cytotoxicity against mouse J774 cells assessed as reduction of cell viability after 24 hrs by resazurin dye-based fluorometric analysis

Examples from the recorded data:
{"sampleSmiles": "O=[N+]([O-])c1ccc(S(=O)(=O)Nc2cnccn2)cc1", "CC50 at 24 h": "≥ 300 µM"}
{"sampleSmiles": "O=S(=O)(Nc1nccc2ccccc12)c1ccccc1", "CC50 at 24 h": "≥ 300 µM"}
{"sampleSmiles": "O=S(=O)(Nc1ccc2[nH]ncc2c1)c1cccc2ccccc12", "CC50 at 24 h": "30 µM"}
{"sampleSmiles": "Cc1cc2cc(NS(=O)(=O)c3cccc4ccccc34)ccc2[nH]1", "CC50 at 24 h": "24.6 µM"}
{"sampleSmiles": "O=[N+]([O-])c1ccc(S(=O)(=O)Nc2ccc3cn[nH]c3c2)cc1", "CC50 at 24 h": "≥ 300 µM"}
{"sampleSmiles": "O=S(=O)(Nc1ccc2cn[nH]c2c1)c1ccc(F)cc1", "CC50 at 24 h": "≥ 300 µM"}

Here is another molecule to look at.
Incoming: Answer with reported CC50 at 24 h of O=[N+]([O-])c1ccc(S(=O)(=O)Nc2ccc3ncsc3c2)cc1
Outgoing: ≥ 300 µM
